From: patent US20220064327A1

We begin with a simple list: items and their reported koff.
Assay System: T1, human factor X (human, UniProt P00742 41-179; P00742 183-488)
T1 construct: Zymogen used as analyte in SPR; also called FX; Human FX (MW ~58 KDa)
T1 sequence (P00742 41-179, chain 1 of 2): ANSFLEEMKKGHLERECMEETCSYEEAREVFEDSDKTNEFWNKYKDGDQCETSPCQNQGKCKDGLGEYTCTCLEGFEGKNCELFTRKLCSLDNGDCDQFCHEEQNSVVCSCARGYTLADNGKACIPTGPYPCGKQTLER
T1 sequence (P00742 183-488, chain 2 of 2): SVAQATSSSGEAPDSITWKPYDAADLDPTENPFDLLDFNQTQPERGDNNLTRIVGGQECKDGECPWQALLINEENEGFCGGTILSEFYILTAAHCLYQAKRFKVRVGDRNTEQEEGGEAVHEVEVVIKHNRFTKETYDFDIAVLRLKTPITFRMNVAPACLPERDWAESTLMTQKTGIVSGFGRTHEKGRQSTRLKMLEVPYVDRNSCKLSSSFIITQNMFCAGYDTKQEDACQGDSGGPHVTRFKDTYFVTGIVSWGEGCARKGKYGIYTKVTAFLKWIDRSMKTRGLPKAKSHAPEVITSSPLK
Run Description: SPR as in Example 10, human FX as analyte
Kindly provide the numeric value in s⁻¹ only, without the unit symbol.

TINA-0201.0128 (antibody, V domains shown, Monospecific IgG4PE) VH: QVQLIQSGAEVKKPGASVKVSCKASRYSFTSYYMHWVRQAPGQGLEWMGIINPKSGSTSYAQKFQGRVTMTRDTSTSTVYMELSSLRSEDTAVYYCARDGYGSSSRCLQLWGQGTLVTVSS VL: SYVLTQPPSVSVAPGETARITCGGDNIGRKSVYWYQQKSGQAPVLVIYYDSDRPSGIPERFSGSNSGNTATLTISRVEAGDEADYYCQVWDGSSDHWVFGGGTKLTVL :: 0.0482
TINA-0616.0128 (antibody, V domains shown, Monospecific IgG; position is IMGT numbering, not a count on the entry) VH: QVQLIQSGAEVKKPGASVKVSCKASRYSFTSYYMHWVRQAPGQGLEWMGIINPKSGSTSYAQKFQGRVTMTRDTSTSTVYMELSSLRSEDTAVYYCARDGYGSSSRCIQLWGQGTLVTVSS VL: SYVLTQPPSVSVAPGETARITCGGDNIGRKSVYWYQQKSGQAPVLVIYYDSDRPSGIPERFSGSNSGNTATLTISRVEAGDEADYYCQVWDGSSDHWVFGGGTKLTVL :: 0.0222
TINA-0202.0128 (antibody, V domains shown, Monospecific IgG4PE) VH: QVQLIQSGAEVQKPGASVKVSCKASRYSFTSYYMHWVRQAPGQGLEWMGIINPKSGSTSYAQKFQGRVTMTRDTSTSTVYMELSSLRSEDTAVYYCARDGYGSSSRCLQLWGQGTLVTVSS VL: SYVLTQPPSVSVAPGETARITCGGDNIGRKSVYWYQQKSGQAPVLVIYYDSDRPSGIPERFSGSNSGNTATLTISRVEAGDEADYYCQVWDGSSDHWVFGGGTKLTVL :: 0.0709

Alright, here's another binder for you.
Item: TINA-0666.0128 (antibody, V domains shown, Monospecific IgG) VH: QVQLIQSGAEVKKPGASVKVSCKASRYSFTSYYMHWVRQAPGQGLEWMGIINPKSGSTSYAQKFQGRVTMTRDTSTSTVYMELSSLRSEDTAVYYCARDGYGSSSRIIQLWGQGTLVTVSS VL: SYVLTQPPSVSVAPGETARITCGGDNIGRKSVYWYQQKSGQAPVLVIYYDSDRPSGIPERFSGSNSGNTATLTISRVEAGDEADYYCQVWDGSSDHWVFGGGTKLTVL | koff: 0.0417
